List of growth values.
System: SW-620 colon
Procedure Details: NCI-60 one-dose screen, 48 h (100 = growth as untreated, 0 = no growth, -100 = all killed)
Experimental Conditions: 10 µM
Compounds without any hit were thinned out: in the full panel of roughly 83,000, 20% have a hit.
Response body: numeric value in %, unit text excluded.

Please review the following examples before continuing.
[[record]]
compound = "N#Cc1c(C#N)c(SSc2c(C#N)c(C#N)c(N)n2-c2ccccc2)n(-c2ccccc2)c1N"
assay_value = 98.7

[[record]]
compound = "Nc1ccc2c(c1)C1(CCC2)NC(=O)NC1=O (stereo not drawn)"
assay_value = 104


Now consider the entry below.
Suppose we examine the compound COc1ccc(Cn2c(C(N)=O)cc3c2-c2nc(N)ncc2CCC3)cc1 ; what growth value has been reported?
91.3

---

Test system: SF-295 CNS
Procedure Details: NCI-60 one-dose screen, 48 h (100 = growth as untreated, 0 = no growth, -100 = all killed)
Experimental Conditions: 10 µM
Compounds without any hit were thinned out: in the full panel of roughly 83,000, 20% have a hit.
Measurement Kind: growth (%)
Express it in %; write the number only.

[[record]]
entry_smiles = "COC(=O)[C@@H]1[C@H](O)[C@H](C)[C@H](O)[C@@](C)(O)/C=C\\C=C(C)C(=O)Nc2c(C)c(OC(C)=O)c3c(c2O)C(=O)C(C)=C2OCOC(=C23)C(C)=C[C@@](C)(O)[C@H](O)[C@@H](C)[C@H]1OC(C)=O"
target_or_system = "SF-295 CNS"
assay_value = 98

[[record]]
entry_smiles = "COc1ccc(-c2nn(-c3cccc(NC(=O)Nc4ccccc4)c3)cc2-c2ccncc2)cc1Cl"
target_or_system = "SF-295 CNS"
assay_value = -7.17

[[record]]
entry_smiles = "Clc1ccc2c(NCCCNc3nccc(Nc4ccc(Br)cc4)n3)ccnc2c1"
target_or_system = "SF-295 CNS"
assay_value = -84.9

[[record]]
entry_smiles = "Cc1cc(=O)n2nnc3c4ccccc4ccc3n12"
target_or_system = "SF-295 CNS"
assay_value = 104


For the molecule O=C(Nc1cccc(-n2cc(-c3ccncc3)c(-c3ccc(O)c(Cl)c3)n2)c1)c1cc(C(F)(F)F)cc(C(F)(F)F)c1 , what growth is on record?
24.9

What value of growth has been reported for the following molecule? CCC(=O)N1C/C(=C/c2ccc(OC)cc2)C(=O)/C(=C/c2ccc(OC)cc2)C1
-5.17

Form field: reported growth of N#CCCN1C/C(=C/c2ccc(Br)cc2)C(=O)/C(=C/c2ccc(Br)cc2)C1
-20.2

What does the record list as growth for O=S(=O)(Nc1ccccn1)c1ccc(N=Nc2ccc(O)c3ncccc23)cc1 ?
6.2

Query (molecule): O=C1c2ccc3c4c(ccc(c24)C(=O)N1CCNCc1ccccc1)C(=O)N(CCNCc1ccccc1)C3=O ; field requested: growth
-28.2

Which growth is reported for this molecule? FC(F)(F)c1ccc(-c2cnc(Cl)nc2N2CCC3(CC2)OCCO3)cc1
89.7

What value of growth has been reported for the following molecule? CC(C)(C)c1cc(Br)cc(C(C)(C)C)c1O
97.8

---

Test system: OVCAR-8 ovarian
Procedure Details: NCI-60 one-dose screen, 48 h (100 = growth as untreated, 0 = no growth, -100 = all killed)
Experimental Conditions: 10 µM
The panel holds about 83,000 compounds, 20% with a hit somewhere; the sample as a whole holds those more often. Activity calls are given as the source filed them. The calls were made as follows: active = growth percent below 10; inactive = the rest.
In this section, each of the molecules is paired with its reported growth.

Observe how each entry below is paired with its result.
[[record]]
entry_smiles = "CCN1CCN(c2nc3ccccc3c3c(=O)c4ccccc4sc23)CC1"
target_or_system = "OVCAR-8 ovarian"
assay_value = "36.9% (inactive)"

[[record]]
entry_smiles = "N=c1nc(N)ncn1-c1ccccc1"
target_or_system = "OVCAR-8 ovarian"
assay_value = "99.5% (inactive)"


Quick check: growth of COc1ccccc1CNCCCN1C(=O)c2ccc3c4c(ccc(c24)C1=O)C(=O)N(CCCN)C3=O ?
-24.2% (active)

Report growth for CSc1nc(=O)n(Cc2ccc(Cl)cc2)c(=O)[nH]1 please.
98.8% (inactive)

Could you tell me which growth is on file for Clc1ccccc1N=Cc1ccc2c(c1)OCO2 ?
103% (inactive)

Requested read-out: growth. Entry: CN1c2ccccc2[C@]2(Cc3ccccc3)Cc3ccccc3N[C@H]12
106% (inactive)
